biological target: GABA-A receptor; anion channel; experiment: Ability to inhibit [3H]-Ro- 15-1788 binding to Gamma-aminobutyric acid A receptor alpha in vitro in rat cortical membranes
TEST_READOUT: Ki

Examples with their reported Ki follow.
>>> df
                              smiles_data                 measured_target   measured
0  Cc1ccc2oc(-c3cccc(C(=O)O)c3)cc(=O)c2c1  GABA-A receptor; anion channel  > 1700 nM
1  COc1cc(CO)cc(-c2cc(=O)c3cc(C)ccc3o2)c1  GABA-A receptor; anion channel  > 1600 nM
2        CCCc1ccc2oc(-c3ccccc3)cc(=O)c2c1  GABA-A receptor; anion channel     480 nM
3          Cc1ccc2oc(-c3ccccc3)cc(=O)c2c1  GABA-A receptor; anion channel     180 nM

Next compound, Ki to be filled in.
Looking for the measured Ki of COC(=O)c1cc(OC)cc(-c2cc(=O)c3cc(C)ccc3o2)c1 , can you help? 3000 nM

* * *

target: GABA-A receptor; anion channel; experiment: Ability to inhibit [3H]-Ro- 15-1788 binding to Gamma-aminobutyric acid A receptor alpha in vitro in rat cortical membranes
pKi: −log10 of the molar value.
TEST_READOUT: pKi

                      smiles_data  measured
0  Cc1ccc2oc(-c3cccnc3)cc(=O)c2c1      6.89

Tell me the measured pKi of CC(C)c1ccc2oc(-c3ccccc3)cc(=O)c2c1 , please. 6.14

* * *

In this section we review reported pKi values for a set of molecules.
target: GABA-A receptor; anion channel; test: Ability to inhibit [3H]-Ro- 15-1788 binding to Gamma-aminobutyric acid A receptor alpha in vitro in rat cortical membranes
FYI, pKi means -log10 of a concentration in mol per litre.

Recorded results for 5 molecules are shown here.
                                smiles_data  test_readout  measured
0         Cc1ccc2oc(-c3cccc(N)c3)cc(=O)c2c1           pKi      5.92
1  CCOC(=O)c1cc(N)cc(-c2cc(=O)c3cc(C)ccc3o2)c1           pKi      5.44
2          COc1ccccc1-c1cc(=O)c2cc(C)ccc2o1           pKi      6.09
3      Cc1ccc(O)c(-c2cc(=O)c3cc(C)ccc3o2)c1           pKi      8.11
4   COC(=O)c1cccc(-c2cc(=O)c3cc(C)ccc3o2)c1           pKi      6.66

Lab note: next molecule to report on.
I am curious: what pKi value has been reported for Cc1ccc2oc(-c3ccccc3O)cc(=O)c2c1 ? 8.21

* * *

Reported pKi values for a set of molecules
molecular target: GABA-A receptor; anion channel; test: Ability to inhibit [3H]-Ro- 15-1788 binding to Gamma-aminobutyric acid A receptor alpha in vitro in rat cortical membranes
pKi field: float, defined as -log10 of concentration (mol/L).

// worked examples, pKi included
>>> print(df.to_string())
                                smiles_data                 measured_target  measured
0         Cc1ccc2oc(-c3cccc(O)c3)cc(=O)c2c1  GABA-A receptor; anion channel      6.41
1  Cc1ccc2oc(-c3cccc(C(F)(F)F)c3)cc(=O)c2c1  GABA-A receptor; anion channel      8.01
2     CCCCOc1cccc(-c2cc(=O)c3cc(C)ccc3o2)c1  GABA-A receptor; anion channel      6.15

Next up:
Query: pKi; subject: Cc1ccc2oc(-c3cccc(C(=O)OC(C)C)c3)cc(=O)c2c1 6.74
